Answer each item with its documented 8OG:A repair function score.
B1: library; numbered along this chain (parent)
chain: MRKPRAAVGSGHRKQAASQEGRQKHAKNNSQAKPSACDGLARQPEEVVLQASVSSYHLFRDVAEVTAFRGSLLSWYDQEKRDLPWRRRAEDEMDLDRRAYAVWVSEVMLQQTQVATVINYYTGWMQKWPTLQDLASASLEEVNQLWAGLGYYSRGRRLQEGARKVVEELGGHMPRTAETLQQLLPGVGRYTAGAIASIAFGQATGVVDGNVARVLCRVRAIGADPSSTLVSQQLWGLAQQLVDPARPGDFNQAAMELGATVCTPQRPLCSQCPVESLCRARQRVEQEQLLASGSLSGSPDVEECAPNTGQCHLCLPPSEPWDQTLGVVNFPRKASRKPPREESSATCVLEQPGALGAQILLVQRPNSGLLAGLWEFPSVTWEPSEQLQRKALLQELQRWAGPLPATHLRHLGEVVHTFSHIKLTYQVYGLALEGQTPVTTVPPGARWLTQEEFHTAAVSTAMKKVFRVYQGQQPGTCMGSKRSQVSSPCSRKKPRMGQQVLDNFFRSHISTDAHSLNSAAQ

- Variants of: B1
- assay_name: 8OG:A repair function score (normalized; synonymous = 0, nonsense = -1) (normalized log-likelihood score); higher = more repair activity (WT-like);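 also: cells sorted at 72 h after reporter transfection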
- conditions: with 8OG:A DNA repair reporter (GFP) in HEK-293 MUTYH KO cells
Numbers only.

# per-item lookup of 8OG:A repair function score; items listed below
1. L145V
2. K333T
3. A391L
4. G186H
5. V458R
6. L430Q

[out]
-0.0541
-0.137
-0.101
-0.754
-0.663
-0.561

# per-item lookup of 8OG:A repair function score; items listed below
1. R506E
2. T511F
3. N517V
4. A345G
5. M255D
6. V104F

[out]
0.0109
-0.00618
-0.00815
-0.243
-1.03
-1.1

# per-item lookup of 8OG:A repair function score; items listed below
1. G205F
2. Q323S
3. P442V
4. L432T
5. G434H
6. V230N
7. D96T
8. P244N

[out]
1: -0.891; 2: -0.0829; 3: -0.0512; 4: -0.151; 5: -0.0472; 6: -0.687; 7: -1.12; 8: -0.467

# per-item lookup of 8OG:A repair function score; items listed below
1. I359S
2. K463N

[out]
[-0.465, -0.338]
